Origin of the recorded values: the supplement of paper PMC10307832

system: 201T; experiment: relative viability (nuclei count vs DMSO), 5 days (fraction); higher = more cells survive; settings: first compound 158.11 µM
Please assign Not met whenever relative viability is at or above 0.7, and Met whenever it is below.

Molecule: O=C(O)CCCCC(CCSCc1ccccc1)SCc1ccccc1 (stereo unspecified) [CPI-613] + Cc1nc(Nc2ncc(C(=O)Nc3c(C)cccc3Cl)s2)cc(N2CCN(CCO)CC2)n1 [Dasatinib] (partner 0.075 µM)
Group label: Met
--
Molecule: O=C(O)CCCCC(CCSCc1ccccc1)SCc1ccccc1 (stereo unspecified) [CPI-613] + CC(=O)Nc1cccc(-n2c(=O)n(C3CC3)c(=O)c3c(Nc4ccc(I)cc4F)n(C)c(=O)c(C)c32)c1 [Trametinib] (partner 0.02 µM)
Group label: Met
--
Molecule: O=C(O)CCCCC(CCSCc1ccccc1)SCc1ccccc1 (stereo unspecified) [CPI-613] + CS(=O)(=O)N1CCN(Cc2cc3nc(-c4cccc5[nH]ncc45)nc(N4CCOCC4)c3s2)CC1 [Pictilisib] (partner 1 µM)
Group label: Met
--
Molecule: O=C(O)CCCCC(CCSCc1ccccc1)SCc1ccccc1 (stereo unspecified) [CPI-613] + CS(=O)(=O)CCNCc1ccc(-c2ccc3ncnc(Nc4ccc(OCc5cccc(F)c5)c(Cl)c4)c3c2)o1 [Lapatinib] (partner 2 µM)
Group label: Not met
--
Molecule: O=C(O)CCCCC(CCSCc1ccccc1)SCc1ccccc1 (stereo unspecified) [CPI-613] + COc1cc2c(Oc3ccc(NC(=O)C4(C(=O)Nc5ccc(F)cc5)CC4)cc3F)ccnc2cc1OCCCN1CCOCC1 [Foretinib] (partner 0.25 µM)
Group label: Met
--
Molecule: O=C(O)CCCCC(CCSCc1ccccc1)SCc1ccccc1 (stereo unspecified) [CPI-613] + N=C(N)NC(=N)NCCc1ccccc1 [Phenformin] (partner 250 µM)
Group label: Met

====

tested on: HCC-827; assay: relative viability (nuclei count vs DMSO), 5 days (fraction); higher = more cells survive; settings: first compound 0.0002 µM
Please assign Not fulfilled whenever relative viability is at or above 0.5, and Fulfilled whenever it is below.

Molecule: CC(=O)O[C@@]12CO[C@@H]1C[C@H](O)[C@@]1(C)C(=O)[C@H](O)C3=C(C)[C@@H](OC(=O)[C@H](O)[C@@H](NC(=O)OC(C)(C)C)c4ccccc4)C[C@@](O)([C@@H](OC(=O)c4ccccc4)[C@H]21)C3(C)C [Docetaxel] + C[C@]1(O)C[C@@H](c2nc(-c3ccc4ccc(-c5ccccc5)nc4c3)c3c(N)nccn32)C1 [Linsitinib] (partner 1 µM)
Tgt: HCC-827
Group label: Not fulfilled

Molecule: CC(=O)O[C@@]12CO[C@@H]1C[C@H](O)[C@@]1(C)C(=O)[C@H](O)C3=C(C)[C@@H](OC(=O)[C@H](O)[C@@H](NC(=O)OC(C)(C)C)c4ccccc4)C[C@@](O)([C@@H](OC(=O)c4ccccc4)[C@H]21)C3(C)C [Docetaxel] + Nc1nc2[nH]cc(CCc3ccc(C(=O)N[C@@H](CCC(=O)O)C(=O)O)cc3)c2c(=O)[nH]1 [Pemetrexed] (partner 0.2 µM)
Tgt: HCC-827
Group label: Fulfilled

Molecule: CC(=O)O[C@@]12CO[C@@H]1C[C@H](O)[C@@]1(C)C(=O)[C@H](O)C3=C(C)[C@@H](OC(=O)[C@H](O)[C@@H](NC(=O)OC(C)(C)C)c4ccccc4)C[C@@](O)([C@@H](OC(=O)c4ccccc4)[C@H]21)C3(C)C [Docetaxel] + CCNC(=O)c1noc(-c2cc(C(C)C)c(O)cc2O)c1-c1ccc(CN2CCOCC2)cc1 [Luminespib] (partner 0.01 µM)
Tgt: HCC-827
Group label: Not fulfilled

Molecule: CC(=O)O[C@@]12CO[C@@H]1C[C@H](O)[C@@]1(C)C(=O)[C@H](O)C3=C(C)[C@@H](OC(=O)[C@H](O)[C@@H](NC(=O)OC(C)(C)C)c4ccccc4)C[C@@](O)([C@@H](OC(=O)c4ccccc4)[C@H]21)C3(C)C [Docetaxel] + Nc1ncn([C@H]2C[C@H](O)[C@@H](CO)O2)c(=O)n1 [Decitabine] (partner 2 µM)
Tgt: HCC-827
Group label: Fulfilled

Molecule: CC(=O)O[C@@]12CO[C@@H]1C[C@H](O)[C@@]1(C)C(=O)[C@H](O)C3=C(C)[C@@H](OC(=O)[C@H](O)[C@@H](NC(=O)OC(C)(C)C)c4ccccc4)C[C@@](O)([C@@H](OC(=O)c4ccccc4)[C@H]21)C3(C)C [Docetaxel] + N=C(N)NC(=N)NCCc1ccccc1 [Phenformin] (partner 250 µM)
Tgt: HCC-827
Group label: Fulfilled

Molecule: CC(=O)O[C@@]12CO[C@@H]1C[C@H](O)[C@@]1(C)C(=O)[C@H](O)C3=C(C)[C@@H](OC(=O)[C@H](O)[C@@H](NC(=O)OC(C)(C)C)c4ccccc4)C[C@@](O)([C@@H](OC(=O)c4ccccc4)[C@H]21)C3(C)C [Docetaxel] + CC(C)C[C@H](NC(=O)[C@H](Cc1ccccc1)NC(=O)c1cnccn1)B(O)O [Bortezomib] (partner 0.002 µM)
Tgt: HCC-827
Group label: Not fulfilled

====

test system: COR-L23; test: relative viability (nuclei count vs DMSO), 5 days (fraction); higher = more cells survive; conditions: first compound 0.000632 µM

Compound: CC(=O)O[C@@]12CO[C@@H]1C[C@H](O)[C@@]1(C)C(=O)[C@H](O)C3=C(C)[C@@H](OC(=O)[C@H](O)[C@@H](NC(=O)OC(C)(C)C)c4ccccc4)C[C@@](O)([C@@H](OC(=O)c4ccccc4)[C@H]21)C3(C)C [Docetaxel] + COc1cc2c(Oc3ccc(NC(=O)C4(C(=O)Nc5ccc(F)cc5)CC4)cc3F)ccnc2cc1OCCCN1CCOCC1 [Foretinib] (partner 0.25 µM)
relative viability: 0.896
--
Compound: CC(=O)O[C@@]12CO[C@@H]1C[C@H](O)[C@@]1(C)C(=O)[C@H](O)C3=C(C)[C@@H](OC(=O)[C@H](O)[C@@H](NC(=O)OC(C)(C)C)c4ccccc4)C[C@@](O)([C@@H](OC(=O)c4ccccc4)[C@H]21)C3(C)C [Docetaxel] + C[C@@H](Oc1cc(-c2cnn(C3CCNCC3)c2)cnc1N)c1c(Cl)ccc(F)c1Cl [Crizotinib] (partner 1 µM)
relative viability: 0.483
--
Compound: CC(=O)O[C@@]12CO[C@@H]1C[C@H](O)[C@@]1(C)C(=O)[C@H](O)C3=C(C)[C@@H](OC(=O)[C@H](O)[C@@H](NC(=O)OC(C)(C)C)c4ccccc4)C[C@@](O)([C@@H](OC(=O)c4ccccc4)[C@H]21)C3(C)C [Docetaxel] + CC1(C)CCC(c2ccc(Cl)cc2)=C(CN2CCN(c3ccc(C(=O)NS(=O)(=O)c4ccc(N[C@H](CCN5CCOCC5)CSc5ccccc5)c(S(=O)(=O)C(F)(F)F)c4)cc3)CC2)C1 [Navitoclax] (partner 0.5 µM)
relative viability: 0.939

====

test system: NCI-H2228; assay: relative viability (nuclei count vs DMSO), 5 days (fraction); higher = more cells survive; details: first compound 0.05 µM

Compound: Nc1ccn([C@@H]2O[C@H](CO)[C@@H](O)[C@@H]2O)c(=O)n1 [Cytarabine] + C[C@@H](Oc1cc(-c2cnn(C3CCNCC3)c2)cnc1N)c1c(Cl)ccc(F)c1Cl [Crizotinib] (partner 1 µM)
relative viability: 0.218

Compound: COc1cc2nccc(Oc3ccc(NC(=O)Nc4cc(C)on4)c(Cl)c3)c2cc1OC [Tivozanib] + CC(=O)Nc1cccc(-n2c(=O)n(C3CC3)c(=O)c3c(Nc4ccc(I)cc4F)n(C)c(=O)c(C)c32)c1 [Trametinib] (partner 0.02 µM)
relative viability: 0.514

Compound: COc1cc2nccc(Oc3ccc(NC(=O)Nc4cc(C)on4)c(Cl)c3)c2cc1OC [Tivozanib] + CCNC(=O)c1noc(-c2cc(C(C)C)c(O)cc2O)c1-c1ccc(CN2CCOCC2)cc1 [Luminespib] (partner 0.01 µM)
relative viability: 0.112

Compound: COc1cc2nccc(Oc3ccc(NC(=O)Nc4cc(C)on4)c(Cl)c3)c2cc1OC [Tivozanib] + C[C@]1(O)C[C@@H](c2nc(-c3ccc4ccc(-c5ccccc5)nc4c3)c3c(N)nccn32)C1 [Linsitinib] (partner 1 µM)
relative viability: 0.697

====

// reported relative viability for each item listed
tested on: NCI-H727; experiment: relative viability (nuclei count vs DMSO), 5 days (fraction); higher = more cells survive; conditions: first compound 0.002 µM

Molecule: CC(=O)O[C@@]12CO[C@@H]1C[C@H](O)[C@@]1(C)C(=O)[C@H](O)C3=C(C)[C@@H](OC(=O)[C@H](O)[C@@H](NC(=O)OC(C)(C)C)c4ccccc4)C[C@@](O)([C@@H](OC(=O)c4ccccc4)[C@H]21)C3(C)C [Docetaxel] + CC(=O)c1c(C)c2cnc(Nc3ccc(N4CCNCC4)cn3)nc2n(C2CCCC2)c1=O [Palbociclib] (partner 0.5 µM)
relative viability: 0.629

Molecule: CC(=O)O[C@@]12CO[C@@H]1C[C@H](O)[C@@]1(C)C(=O)[C@H](O)C3=C(C)[C@@H](OC(=O)[C@H](O)[C@@H](NC(=O)OC(C)(C)C)c4ccccc4)C[C@@](O)([C@@H](OC(=O)c4ccccc4)[C@H]21)C3(C)C [Docetaxel] + COc1cc2c(Oc3ccc(NC(=O)C4(C(=O)Nc5ccc(F)cc5)CC4)cc3F)ccnc2cc1OCCCN1CCOCC1 [Foretinib] (partner 0.25 µM)
relative viability: 0.788

Molecule: CC(=O)O[C@@]12CO[C@@H]1C[C@H](O)[C@@]1(C)C(=O)[C@H](O)C3=C(C)[C@@H](OC(=O)[C@H](O)[C@@H](NC(=O)OC(C)(C)C)c4ccccc4)C[C@@](O)([C@@H](OC(=O)c4ccccc4)[C@H]21)C3(C)C [Docetaxel] + C[C@@H](Oc1cc(-c2cnn(C3CCNCC3)c2)cnc1N)c1c(Cl)ccc(F)c1Cl [Crizotinib] (partner 1 µM)
relative viability: 0.344
